Biological target: NA transporter (Rattus norvegicus, UniProt Q9WTR4)
Construct: from tissue; host or cells: rat brain (hypothalamus), synaptosomes, P2 fraction
Sequence (Q9WTR4 1-597): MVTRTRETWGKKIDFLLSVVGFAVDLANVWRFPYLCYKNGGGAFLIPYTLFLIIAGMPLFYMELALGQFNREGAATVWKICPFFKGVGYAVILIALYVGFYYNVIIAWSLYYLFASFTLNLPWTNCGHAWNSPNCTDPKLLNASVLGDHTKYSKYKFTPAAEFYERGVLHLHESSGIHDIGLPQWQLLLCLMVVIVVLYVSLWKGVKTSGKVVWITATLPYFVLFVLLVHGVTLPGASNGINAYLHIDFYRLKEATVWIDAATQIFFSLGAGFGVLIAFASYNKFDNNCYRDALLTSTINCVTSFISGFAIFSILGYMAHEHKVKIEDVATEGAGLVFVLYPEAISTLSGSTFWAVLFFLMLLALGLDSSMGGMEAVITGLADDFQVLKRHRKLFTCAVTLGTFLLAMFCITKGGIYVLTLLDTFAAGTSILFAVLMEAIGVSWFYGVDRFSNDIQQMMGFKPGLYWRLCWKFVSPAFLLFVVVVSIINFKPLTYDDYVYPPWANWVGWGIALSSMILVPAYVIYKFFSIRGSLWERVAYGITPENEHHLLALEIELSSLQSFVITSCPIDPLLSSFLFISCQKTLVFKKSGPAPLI
Assay: Noradrenalin (NA) uptake inhibition, synaptosomes from rat brain (hypothalamus)
Format: biochemical
Criterion: inhibition at 10 µM meeting or surpassing 60%. Met: Criterion met. Not met: Criterion not met.

{"columns": ["molecule", "group"],
 "data": [
  ["O=C(Nc1ccccc1)c1noc2c1CN(C(=O)c1ccccc1F)CC2", "Criterion not met"],
  ["O=C(c1noc2c1CN(S(=O)(=O)c1cc(Cl)ccc1Cl)CC2)N1CCN(c2ccccc2Cl)CC1", "Criterion met"],
  ["O=C(NCCc1ccccc1)c1noc2c1CN(C(=O)c1ccc(F)c(Cl)c1)CC2", "Criterion met"],
  ["COc1ccc(NC(=O)N2CCc3onc(C(=O)NCc4ccccc4)c3C2)cc1", "Criterion not met"],
  ["COc1ccc(CNC(=S)N2CCc3onc(C(=O)NC4CCCC4)c3C2)cc1", "Criterion met"],
  ["Cc1ccc(S(=O)(=O)N2CCc3onc(C(=O)NCc4ccc(S(N)(=O)=O)cc4)c3C2)cc1", "Criterion not met"],
  ["CC(CCc1ccccc1)NC(=O)c1noc2c1CN(S(=O)(=O)c1ccc(OC(F)(F)F)cc1)CC2 (centres unmarked)", "Criterion met"]
]}

---

Item-by-item account of inhibition at 10 µM
Biological target: NA transporter (Rattus norvegicus, UniProt Q9WTR4)
Construct: from tissue; host or cells: rat brain (hypothalamus), synaptosomes, P2 fraction
Test: Noradrenalin (NA) uptake inhibition, synaptosomes from rat brain (hypothalamus)
Type: biochemical

{"columns": ["molecule", "outputUnit", "inhibition at 10 µM"],
 "data": [
  ["COCCNC(=S)N1CCc2onc(C(=O)NCCc3ccccc3)c2C1", "%", 67],
  ["CC(CNC(=O)c1noc2c1CN(S(=O)(=O)c1cccs1)CC2)c1ccccc1 (centres unmarked)", "%", 77],
  ["Cc1cc(C)c(S(=O)(=O)N2CCc3onc(C(=O)N4CCC(CCN5CCCC5)CC4)c3C2)c(C)c1", "%", 42],
  ["O=C(c1noc2c1CN(S(=O)(=O)c1cccc(C(F)(F)F)c1)CC2)N(CCc1ccccc1)Cc1ccccc1", "%", 84],
  ["O=C(Cc1ccc(F)c(F)c1)N1CCN(C(=O)c2noc3c2CN(S(=O)(=O)c2ccc(F)cc2)CC3)CC1", "%", 61]
]}

---

Molecular target: NA transporter (Rattus norvegicus, UniProt Q9WTR4)
Construct: from tissue; host or cells: rat brain (hypothalamus), synaptosomes, P2 fraction
Test: Noradrenalin (NA) uptake inhibition, synaptosomes from rat brain (hypothalamus)
Format: biochemical
Item-by-item account of inhibition at 10 µM
assayMetric: inhibition at 10 µM (%)

{"columns": ["molecule", "targetUnderTest", "readoutValue"],
 "data": [
  ["O=C(c1noc2c1CN(S(=O)(=O)c1ccc3ccccc3c1)CC2)N1CCC(CCN2CCCC2)CC1 [Example 148]", "NA transporter (Rattus norvegicus, UniProt Q9WTR4)", 49],
  ["O=C(Nc1ccccc1)c1noc2c1CN(Cc1ccc3ccccc3c1Br)CC2 [Example 135]", "NA transporter (Rattus norvegicus, UniProt Q9WTR4)", 60],
  ["CC(NC(=S)N1CCc2onc(C(=O)NCCc3ccccc3)c2C1)c1ccccc1 (centres unmarked) [Example 132]", "NA transporter (Rattus norvegicus, UniProt Q9WTR4)", 76],
  ["O=C(c1noc2c1CN(S(=O)(=O)c1ccc(OC(F)(F)F)cc1)CC2)N(CCc1ccccc1)Cc1ccccc1 [Example 32]", "NA transporter (Rattus norvegicus, UniProt Q9WTR4)", 82],
  ["CC(CCc1ccccc1)NC(=O)c1noc2c1CN(S(=O)(=O)c1ccc(F)cc1)CC2 (centres unmarked) [Example 38]", "NA transporter (Rattus norvegicus, UniProt Q9WTR4)", 66],
  ["O=C(O)CC1(CC(=O)N2CCc3onc(C(=O)Nc4ccccc4)c3C2)CCCC1 [Example 28]", "NA transporter (Rattus norvegicus, UniProt Q9WTR4)", 44],
  ["O=C(NCc1cccs1)c1noc2c1CN(C(=O)c1ccco1)CC2 [Example 50]", "NA transporter (Rattus norvegicus, UniProt Q9WTR4)", 71],
  ["COCCNC(=O)c1noc2c1CN(C(=O)c1ccc(C(F)(F)F)c(F)c1)CC2 [Example 153]", "NA transporter (Rattus norvegicus, UniProt Q9WTR4)", -12]
]}

---

Item-by-item account of 5-HT uptake (rat), 10 μM, % inhibition
Target: 5-HT transporter (Rattus norvegicus)
Construct: from tissue; host or cells: rat brain (medulla and pons), synaptosomes, P2 fraction
Assay: 5-HT uptake inhibition, synaptosomes from rat brain (medulla and pons)
Assay type: biochemical
assayMetric: 5-HT uptake (rat), 10 μM, % inhibition (%)

{"columns": ["compound", "readoutValue"],
 "data": [
  ["O=C(Nc1ccccc1)c1noc2c1CN(C(=O)Nc1ccc(OC(F)(F)F)cc1)CC2 [Example 3]", 45],
  ["C#CCNC(=O)c1noc2c1CN(C(=O)Nc1ccc(C)c([N+](=O)[O-])c1)CC2 [Example 16]", 55],
  ["CCCCOc1ccc(NC(=O)N2CCc3onc(C(=O)NCCOC)c3C2)cc1 [Example 7]", 44],
  ["Cc1ccc(C(=O)N2CCc3onc(C(=O)NCCN(C)C)c3C2)c(F)c1F [Example 74]", 62],
  ["Cc1ccc(NC(=O)N2CCc3onc(C(=O)NCCc4ccccc4)c3C2)cc1[N+](=O)[O-] [Example 4]", 45],
  ["CCCCC(CC)CNC(=O)c1noc2c1CN(S(=O)(=O)c1cccc(C(F)(F)F)c1)CC2 (centres unmarked) [Example 73]", 63],
  ["C#CCNC(=O)c1noc2c1CN(C(=O)Nc1cccc(F)c1)CC2 [Example 19]", 50],
  ["O=C(NCCc1ccccc1)c1noc2c1CN(C(=O)Nc1cccc(F)c1)CC2 [Example 8]", 54]
]}

---

Target: 5-HT transporter (Rattus norvegicus, UniProt P31652)
Construct: from tissue; host or cells: rat brain (medulla and pons), synaptosomes, P2 fraction
Sequence (P31652 whole entry): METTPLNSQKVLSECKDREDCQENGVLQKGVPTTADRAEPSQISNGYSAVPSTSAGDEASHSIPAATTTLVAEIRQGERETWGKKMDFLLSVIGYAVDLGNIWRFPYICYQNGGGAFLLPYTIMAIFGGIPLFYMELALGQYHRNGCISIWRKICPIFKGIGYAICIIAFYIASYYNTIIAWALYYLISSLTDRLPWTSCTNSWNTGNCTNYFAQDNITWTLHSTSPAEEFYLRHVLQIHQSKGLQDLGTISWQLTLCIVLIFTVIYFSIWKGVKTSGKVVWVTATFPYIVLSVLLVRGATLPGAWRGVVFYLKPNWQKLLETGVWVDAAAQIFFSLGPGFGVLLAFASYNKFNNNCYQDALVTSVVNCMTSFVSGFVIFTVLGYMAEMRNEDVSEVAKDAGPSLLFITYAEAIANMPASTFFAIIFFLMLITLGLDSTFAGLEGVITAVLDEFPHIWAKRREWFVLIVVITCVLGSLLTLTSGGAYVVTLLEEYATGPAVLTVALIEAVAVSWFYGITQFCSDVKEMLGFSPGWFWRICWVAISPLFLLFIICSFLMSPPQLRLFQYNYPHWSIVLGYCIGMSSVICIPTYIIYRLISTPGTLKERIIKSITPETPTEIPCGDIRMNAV
Assay: 5-HT uptake inhibition, synaptosomes from rat brain (medulla and pons)
Type: biochemical
assayMetric: inhibition at 10 µM (%)

{"columns": ["molecule", "assayMetric", "readoutValue"],
 "data": [
  ["C#CCNC(=O)c1noc2c1CN(C(=O)c1cccc(C)c1)CC2 [Example 108]", "inhibition at 10 µM", 88],
  ["C=CCOc1ccc(CN(Cc2ccco2)C(=O)c2noc3c2CN(S(=O)(=O)c2cccc(C(F)(F)F)c2)CC3)cc1 [Example 87]", "inhibition at 10 µM", 66],
  ["COc1ccc(CC(=O)N2CCc3onc(C(=O)NCc4ccccc4)c3C2)cc1 [Example 79]", "inhibition at 10 µM", 71],
  ["CCOC(=O)CCNC(=O)c1noc2c1CN(C(=O)Nc1cc(OC)ccc1OC)CC2 [Example 20]", "inhibition at 10 µM", 51]
]}

---

Molecular target: NA transporter (Rattus norvegicus)
Construct: from tissue; host or cells: rat brain (hypothalamus), synaptosomes, P2 fraction
Test: Noradrenalin (NA) uptake inhibition, synaptosomes from rat brain (hypothalamus)
Format: biochemical

{"columns": ["compound", "NA Uptake (rat), 10 μM, % inhibition"],
 "data": [
  ["CC(NC(=O)N1CCc2onc(C(=O)NCCc3ccccc3)c2C1)c1cccc2ccccc12 (stereo not drawn) [Example 18]", "47%"],
  ["COc1ccc(Cl)cc1NC(=O)N1CCc2onc(C(=O)NCC(C)C)c2C1 [Example 24]", "51%"],
  ["CCOC(=O)N1CCC(NC(=O)c2noc3c2CN(S(=O)(=O)c2ccc(F)cc2)CC3)CC1 [Example 43]", "63%"],
  ["O=C(NCCc1ccccc1)c1noc2c1CN(C(=O)Nc1cccc(F)c1)CC2 [Example 8]", "66%"],
  ["CCOc1ccc(NC(=O)N2CCc3onc(C(=O)Nc4ccccc4)c3C2)cc1 [Example 13]", "51%"],
  ["O=C(NCCc1ccccc1)c1noc2c1CN(C(=S)Nc1c(F)c(F)c(F)c(F)c1F)CC2 [Example 131]", "73%"],
  ["Cc1ccc(NC(=O)N2CCc3onc(C(=O)NCCc4ccccc4)c3C2)cc1[N+](=O)[O-] [Example 4]", "57%"],
  ["O=C(NCc1ccccc1)c1noc2c1CN(C(=O)NCCc1ccccc1)CC2 [Example 10]", "42%"],
  ["N#Cc1cccc(NC(=O)N2CCc3onc(C(=O)NCc4cccs4)c3C2)c1 [Example 12]", "46%"]
]}

---

Molecular target: 5-HT transporter (Rattus norvegicus)
Construct: from tissue; host or cells: rat brain (medulla and pons), synaptosomes, P2 fraction
Assay: 5-HT uptake inhibition, synaptosomes from rat brain (medulla and pons)
Format: biochemical

{"columns": ["compound", "inhibition at 10 µM, %"],
 "data": [
  ["O=C(c1noc2c1CN(S(=O)(=O)c1cccc3ccccc13)CC2)N1CCN(c2nccs2)CC1", 30],
  ["Cc1ccc(C(=O)N2CCc3onc(C(=O)NCCN4CCCC4)c3C2)cc1F", 65],
  ["O=C(NCCN1CCOCC1)c1noc2c1CN(S(=O)(=O)c1cccs1)CC2", 63],
  ["CC(=O)c1ccc(N2CCN(C(=O)c3noc4c3CN(S(=O)(=O)c3ccc(C)cc3)CC4)CC2)cc1", 86],
  ["Cc1nn(-c2ccccc2)nc1C(=O)N1CCc2onc(C(=O)NCc3cccnc3)c2C1", 79],
  ["O=C(NCc1ccc(F)cc1)c1noc2c1CN(C(=O)COc1ccccc1)CC2", 84],
  ["O=C(c1noc2c1CN(S(=O)(=O)c1cc(Cl)ccc1Cl)CC2)N1CCC(CNC(=O)C(F)(F)F)CC1", 61],
  ["CC1C(NC(=O)c2noc3c2CN(S(=O)(=O)N(C)C)CC3)CC2CC1C2(C)C (centres unmarked)", 81],
  ["CC(NC(=O)N1CCc2onc(C(=O)NCc3ccccc3)c2C1)c1ccccc1 (centres unmarked)", 58],
  ["CC(C)CNC(=O)c1noc2c1CN(C(=O)C(NC(=O)OCc1ccccc1)c1ccccc1)CC2 (centres unmarked)", 80],
  ["COc1ccc(CNC(=O)c2noc3c2CN(S(=O)(=O)c2ccccc2)CC3)cc1OC", 68],
  ["CCCCOc1ccc(S(=O)(=O)N2CCc3onc(C(=O)NCC(C)C)c3C2)cc1", 85],
  ["COc1ccc(C(=O)N2CCc3onc(C(=O)NCCN(C)C)c3C2)cc1", 81],
  ["O=C(NC(=S)N1CCc2onc(C(=O)NCCN3CCCC3)c2C1)c1ccccc1", 80],
  ["Cc1nn(-c2ccccc2)nc1C(=O)N1CCc2onc(C(=O)NCc3ccc(F)cc3)c2C1", 70],
  ["CN(C)CCNC(=O)c1noc2c1CN(C(=O)COc1ccccc1)CC2", 61],
  ["COc1ccc(S(=O)(=O)N2CCc3onc(C(=O)N4CCN(C(C)=O)CC4)c3C2)cc1", 68]
]}
